Experiment: Binding affinity to cupric ion assessed as retention ratio by measuring compound detected in elution fraction/total compound detected at 2.55 umol by immobilized metal-ion affinity chromatography
Details: dose 2.55 µmol
quantity: Ratio
Give bare numbers.

NCCCC[C@H](N[C@@H](CCc1ccccc1)C(=O)O)C(=O)N1CCC[C@H]1C(=O)O | 0
Cc1[nH]c2ccccc2c1CCNCc1ccc(/C=C/C(=O)NO)cc1 | 1
O=C(/C=C/c1cccc(S(=O)(=O)Nc2ccccc2)c1)NO | 1
Nc1ccccc1NC(=O)c1ccc(CNC(=O)OCc2cccnc2)cc1 | 0.02

Kindly consider the entry below.
Inquiry: What value of Ratio has been recorded for this entry: "COc1c(N2C[C@@H]3CCCN[C@@H]3C2)c(F)cc2c(=O)c(C(=O)O)cn(C3CC3)c12"
Reply text: 0.95
